Attribution: ChEMBL document CHEMBL1212913

SYSTEM_TESTED: Glutamate receptor 1 (Rattus norvegicus)
Sequence (P19490 whole entry): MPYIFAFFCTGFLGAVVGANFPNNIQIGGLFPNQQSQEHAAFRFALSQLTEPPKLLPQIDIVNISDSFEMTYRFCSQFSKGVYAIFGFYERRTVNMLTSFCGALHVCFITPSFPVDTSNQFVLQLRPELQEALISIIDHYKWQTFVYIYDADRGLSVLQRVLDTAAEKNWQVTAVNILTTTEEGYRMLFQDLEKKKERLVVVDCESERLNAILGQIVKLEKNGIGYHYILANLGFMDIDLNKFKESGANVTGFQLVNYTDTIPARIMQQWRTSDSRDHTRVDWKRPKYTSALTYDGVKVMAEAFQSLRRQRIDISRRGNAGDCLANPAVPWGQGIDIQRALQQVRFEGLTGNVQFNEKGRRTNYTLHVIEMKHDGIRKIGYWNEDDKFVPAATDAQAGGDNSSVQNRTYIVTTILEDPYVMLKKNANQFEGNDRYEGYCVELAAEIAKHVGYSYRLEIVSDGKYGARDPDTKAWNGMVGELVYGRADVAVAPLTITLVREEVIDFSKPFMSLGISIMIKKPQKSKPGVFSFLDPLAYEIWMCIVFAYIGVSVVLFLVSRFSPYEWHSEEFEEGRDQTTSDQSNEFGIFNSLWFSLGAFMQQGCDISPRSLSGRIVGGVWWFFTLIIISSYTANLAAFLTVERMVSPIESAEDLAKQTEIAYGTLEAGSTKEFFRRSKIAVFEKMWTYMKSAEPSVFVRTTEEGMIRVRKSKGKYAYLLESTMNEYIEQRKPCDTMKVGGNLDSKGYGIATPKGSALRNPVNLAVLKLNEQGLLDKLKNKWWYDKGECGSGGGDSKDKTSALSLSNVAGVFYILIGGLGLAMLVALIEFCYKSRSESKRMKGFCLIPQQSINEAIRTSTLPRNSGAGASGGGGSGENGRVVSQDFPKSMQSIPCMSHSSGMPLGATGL
TEST_NAME: Antagonist activity at rat recombinant GLuR1 expressed in Xenopus oocytes assessed as inhibition of glutamate-induced current by two-electrode voltage-clamp electrophysiology
QUANTITY_KIND: IC50 (µM)

Sample answers from the record:
{"columns": ["INPUT_SMILES", "IC50 (µM)"],
 "data": [
  ["O=C(O)c1ccc(-n2c(/C=C/c3ccc(O)cc3)nc3ccccc3c2=O)cc1", 110],
  ["CC(C)c1ccc2nc(/C=C/c3cccc([N+](=O)[O-])c3)n(-c3ccc(C(=O)O)cc3)c(=O)c2c1", 200]
]}

a. Cc1ccc2nc(/C=C/c3ccccc3)n(-c3ccc(C(=O)O)cc3)c(=O)c2c1
b. O=C(O)c1ccc(-n2c(/C=C/c3cccc([N+](=O)[O-])c3)nc3c(Cl)cccc3c2=O)cc1
Parameter metric = IC50. Return the lower-valued option from a and b . Provide the label of your selected option as the answer.
a

a. O=C(O)c1ccc(-n2c(/C=C/c3cccc(O)c3)nc3ccccc3c2=O)cc1
b. O=C(O)c1ccc(-n2c(/C=C/c3cccc([N+](=O)[O-])c3)nc3cc(Cl)ccc3c2=O)cc1
Please let me know which one, a or b , has a lower measured IC50 value. Give the label under which the chosen entry appears.
a
(a: 24 µM, b: 41 µM)

1. O=C(O)c1ccc(-n2c(/C=C/c3cccc([N+](=O)[O-])c3)nc3ccc(F)cc3c2=O)cc1
2. O=C(O)c1cccc(-n2c(/C=C/c3cccc([N+](=O)[O-])c3)nc3ccccc3c2=O)c1
Between these two entries, 1 and 2 , state which has the higher IC50. Return value: the label identifying the chosen record.
2
